All values here come from patent US9573954B2.

GI50 values for the compounds below.
Test system: ovarian cancer cells (PA-1)
Assay: Cancer cell line growth inhibition, Sulforhodamine B assay, PA-1
Assay type: cell-based
Conditions: 120 h; Table 1; PA-1, 5 days, SRB; read-out: Cancer Cell Line GI50 Range PA-1

Example entries begin here.
- CHEMICAL_STRUCTURE: "O=C(NC1CC1)c1ccc(-c2cnn3c(NCC4CCOCC4)nc(OC4CCCC4)nc23)cc1"
  GI50: "100 to 500 nM"
- CHEMICAL_STRUCTURE: "O=C(NC1CC1)c1ccc(-c2cnn3c(NCC4CCOCC4)nc(NC4CCCC4)nc23)cc1"
  GI50: "100 to 500 nM"
- CHEMICAL_STRUCTURE: "O=C(NC1CC1)c1ccc(-c2cnn3c(NCC4CCOCC4)nc(Oc4ccccc4)nc23)cc1"
  GI50: "100 to 500 nM"
- CHEMICAL_STRUCTURE: "O=C(NC1CC1)c1ccc(-c2cnn3c(NCCN4CCOCC4)nc(Oc4cccnc4)nc23)cc1"
  GI50: "> 500 nM"
- CHEMICAL_STRUCTURE: "O=C(NC1CC1)c1ccc(-c2cnn3c(NCC4CCOCC4)nc(OC4CCCC4)nc23)cc1Cl"
  GI50: "100 to 500 nM"
- CHEMICAL_STRUCTURE: "O=C(NC1CC1)c1ccc(-c2cnn3c(NCCN4CCOCC4)nc(Oc4ccccc4)nc23)cc1"
  GI50: "100 to 500 nM"
- CHEMICAL_STRUCTURE: "O=C(NC1CC1)c1ccc(-c2cnn3c(NCC4CCOCC4)nc(Oc4ccccc4)nc23)cc1Cl"
  GI50: "100 to 500 nM"
- CHEMICAL_STRUCTURE: "O=C(NC1CC1)c1ccc(-c2cnn3c(NCC4CCOCC4)nc(Oc4cccnc4)nc23)cc1"
  GI50: "100 to 500 nM"

Consider the record given below.
Ask: Please report the recorded GI50 for O=C(NC1CC1)c1ccc(-c2cnn3c(NCC4CCOCC4)nc(OC4CCOCC4)nc23)cc1Cl .
Result: 100 to 500 nM

###

pIC50 values for the molecules below.
Target: human TTK (Homo sapiens)
Construct: Active TTK was purchased from Invitrogen as an amino terminal GST fusion of full length human TTK; purchased Invitrogen
Sequence (P33981 whole entry, the tested form may be a part): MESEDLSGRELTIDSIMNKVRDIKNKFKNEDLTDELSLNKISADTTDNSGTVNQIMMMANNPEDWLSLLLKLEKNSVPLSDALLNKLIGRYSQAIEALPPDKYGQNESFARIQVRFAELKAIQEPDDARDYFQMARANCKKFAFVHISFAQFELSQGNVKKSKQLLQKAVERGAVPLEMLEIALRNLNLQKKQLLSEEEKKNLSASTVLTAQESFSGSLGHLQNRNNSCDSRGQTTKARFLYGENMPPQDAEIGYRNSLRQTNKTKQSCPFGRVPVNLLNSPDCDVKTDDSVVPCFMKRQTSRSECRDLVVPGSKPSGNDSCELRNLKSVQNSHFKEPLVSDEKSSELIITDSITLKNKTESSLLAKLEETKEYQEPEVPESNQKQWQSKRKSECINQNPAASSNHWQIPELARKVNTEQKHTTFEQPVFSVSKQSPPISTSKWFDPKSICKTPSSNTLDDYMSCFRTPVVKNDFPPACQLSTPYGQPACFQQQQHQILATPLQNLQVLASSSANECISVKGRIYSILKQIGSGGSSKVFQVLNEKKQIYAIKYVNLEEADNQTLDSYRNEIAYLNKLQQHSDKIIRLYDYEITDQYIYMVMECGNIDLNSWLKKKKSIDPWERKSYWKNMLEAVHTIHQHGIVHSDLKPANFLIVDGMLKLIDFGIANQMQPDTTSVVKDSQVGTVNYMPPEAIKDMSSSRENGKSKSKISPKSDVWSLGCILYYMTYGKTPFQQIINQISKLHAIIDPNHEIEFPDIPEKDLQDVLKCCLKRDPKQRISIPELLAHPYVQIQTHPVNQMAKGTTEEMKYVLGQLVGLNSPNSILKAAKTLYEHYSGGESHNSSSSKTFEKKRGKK
Assay: TTK inhibition assay (indirect ELISA)
Type: biochemical
Conditions: Table 1; 16 μM ATP (asterisk); read-out: TTK IC50 Range
pIC50: −log10 of the molar value.

Example entries begin here.
- MOLECULE: "O=C(NC1CC1)c1ccc(-c2cnn3c(NCC4CCOCC4)nc(Oc4ccccc4)nc23)cc1Cl [Example A4]"
  RESULT: "> 7.00"
- MOLECULE: "O=C(NC1CC1)c1ccc(-c2cnn3c(NCC4CCOCC4)nc(Oc4ccccc4)nc23)cc1 [Example A10]"
  RESULT: "> 7.00"
- MOLECULE: "O=C(NC1CC1)c1ccc(-c2cnn3c(NCC4CCOCC4)nc(OC4CCOCC4)nc23)cc1Cl [Example A14]"
  RESULT: "> 7.00"
- MOLECULE: "O=C(NC1CC1)c1ccc(-c2cnn3c(NCCN4CCOCC4)nc(N4CCC(O)CC4)nc23)cc1 [Example A9]"
  RESULT: "< 6.30"
- MOLECULE: "Cc1cc(-c2cnn3c(NCC4CCOCC4)nc(N(C)C)nc23)ccc1C(=O)NC1CC1 [Example A1]"
  RESULT: "6.30 to 7.00"

Consider the record given below.
Ask: Please report the recorded pIC50 for O=C(NC1CC1)c1ccc(-c2cnn3c(NCCN4CCOCC4)nc(Oc4cccnc4)nc23)cc1 [Example A8] .
Result: < 6.30

###

System: colon cancer cells (HCT116)
Assay: Cancer cell line growth inhibition, Sulforhodamine B assay, HCT116
Assay type: cell-based
Conditions: Homo sapiens, HCT-116, HCT116 colon cancer cell line; read-out: Cancer Cell Line GI50 Range HCT116
PARAMETER: GI50

Example entries begin here.
- MOLECULE: "Cc1cc(-c2cnn3c(NCC4CC4)cc(Oc4cccnc4)nc23)ccc1C(=O)NC1CC1 [Example C152]"
  GI50: "≤ 100 nM"
- MOLECULE: "Cc1cc(-c2cnn3c(NC[C@H]4C[C@@](C)(O)C4)cc(Oc4cccnc4)nc23)ccc1C(=O)NC1CC1 [Example C43]"
  GI50: "≤ 100 nM"

Ask: Please report the recorded GI50 for CC(=O)Nc1cccc(Oc2nc(NCC3CCOCC3)n3ncc(-c4ccc(C(=O)NC5CC5)c(C)c4)c3n2)c1 [Example C19] .
Result: > 500 nM

Ask: Next up: Cc1cc(-c2cnn3c(NCC4CCOCC4)cc(N4CC[C@H](O)C4)nc23)ccc1C(=O)NC1CC1 [Example C143]
Result: > 500 nM

###

GI50 values for the molecules below.
System: breast cancer cells (MDA-MB-468)
Test: Cancer cell line growth inhibition, Sulforhodamine B assay, MDA-MB-468
Type: cell-based
Settings: Homo sapiens, MDA-MB-468, MDA-MB-468 breast cancer cell line; read-out: Cancer Cell Line GI50 Range MDA-MB-468

Ask: Please report the recorded GI50 for O=C(NC1CC1)c1ccc(-c2cnn3c(NCC4CCOCC4)nc(Oc4ccccc4)nc23)cc1F .
Result: > 0.5 µM

Ask: Next up: Cc1cc(-c2cnn3c(NCC4CCOCC4)nc(Oc4cccc(F)c4)nc23)ccc1C(=O)NC1CC1
Result: ≤ 0.1 µM

Ask: Next up: Cc1cc(-c2cnn3c(NCC4CCOCC4)cc(N[C@H]4CCCC[C@H]4O)nc23)ccc1C(=O)NC1CC1
Result: ≤ 0.1 µM

Ask: Next up: Cc1cc(-c2cnn3c(NCC4COC4)cc(N[C@H]4CCCC[C@H]4O)nc23)ccc1C(=O)NC1CC1
Result: ≤ 0.1 µM

Ask: Next up: Cc1cc(-c2cnn3c(NC[C@H]4C[C@](C)(O)C4)cc(NC4CCCC4)nc23)ccc1C(=O)NC1CC1
Result: 0.1 to 0.5 µM

Ask: Next up: Cc1cc(-c2cnn3c(NCC4CCOCC4)cc(N[C@H]4CCOC4)nc23)ccc1C(=O)NC1CC1
Result: 0.1 to 0.5 µM

Ask: Next up: Cc1cc(-c2cnn3c(NCC4CCOCC4)cc(N4CCOC[C@H]4CO)nc23)ccc1C(=O)NC1CC1
Result: 0.1 to 0.5 µM

###

System: breast cancer cells (MDA-MB-468)
Experiment: Cancer cell line growth inhibition, Sulforhodamine B assay, MDA-MB-468
Assay type: cell-based
Conditions: Homo sapiens, MDA-MB-468, MDA-MB-468 breast cancer cell line; read-out: Cancer Cell Line GI50 Range MDA-MB-468
PARAMETER: GI50

- CHEMICAL_STRUCTURE: "Cc1cc(-c2cnn3c(NCC4CC4)cc(NC4CCOCC4)nc23)ccc1C(=O)NC1CC1"
  ASSAY_SYSTEM: "breast cancer cells (MDA-MB-468)"
  GI50: "100 to 500 nM"
- CHEMICAL_STRUCTURE: "Cc1cc(-c2cnn3c(NC[C@H]4C[C@@](C)(O)C4)cc(NC4CCCC4)nc23)ccc1C(=O)NC1CC1"
  ASSAY_SYSTEM: "breast cancer cells (MDA-MB-468)"
  GI50: "≤ 100 nM"
- CHEMICAL_STRUCTURE: "Cc1cc(-c2cnn3c(NCC4CCOCC4)cc(N(C)C4CCCC4)nc23)ccc1C(=O)NC1CC1"
  ASSAY_SYSTEM: "breast cancer cells (MDA-MB-468)"
  GI50: "100 to 500 nM"

Ask: Please report the recorded GI50 for Cc1cc(-c2cnn3c(NCC4CC4)cc(NC4(CO)CCCC4)nc23)ccc1C(=O)NC1CC1 .
Result: 100 to 500 nM

Ask: Next up: Cc1cc(-c2cnn3c(NCCCn4ccnc4)cc(N[C@H]4CCCC[C@H]4O)nc23)ccc1C(=O)NC1CC1
Result: 100 to 500 nM

Ask: Next up: Cc1cc(-c2cnn3c(NC[C@H]4C[C@H](O)C4)cc(NC4CCCC4)nc23)ccc1C(=O)NC1CC1
Result: ≤ 100 nM

Ask: Next up: Cc1cc(-c2cnn3c(NCC4CCOCC4)cc(N[C@H]4CCCC[C@H]4CO)nc23)ccc1C(=O)NC1CC1
Result: 100 to 500 nM

###

Test system: colon cancer cells (HCT116)
Test: Cancer cell line growth inhibition, Sulforhodamine B assay, HCT116
Format: cell-based
Conditions: Homo sapiens, HCT-116, HCT116 colon cancer cell line; read-out: Cancer Cell Line GI50 Range HCT116
PARAMETER: GI50

Example entries begin here.
- CHEMICAL_STRUCTURE: "Cc1cc(-c2cnn3c(NCC4CCOCC4)cc(NC4CC5(COC5)C4)nc23)ccc1C(=O)NC1CC1"
  ASSAY_SYSTEM: "colon cancer cells (HCT116)"
  GI50: "≤ 100 nM"
- CHEMICAL_STRUCTURE: "Cc1cc(-c2cnn3c(NCC4CCOCC4)cc(N[C@H](CO)C4CCCCC4)nc23)ccc1C(=O)NC1CC1"
  ASSAY_SYSTEM: "colon cancer cells (HCT116)"
  GI50: "≤ 100 nM"
- CHEMICAL_STRUCTURE: "Cc1cc(-c2cnn3c(NCC4CCOCC4)cc(Oc4ccc[n+]([O-])c4)nc23)ccc1C(=O)NC1CC1"
  ASSAY_SYSTEM: "colon cancer cells (HCT116)"
  GI50: "> 500 nM"

Ask: Please report the recorded GI50 for Cc1cc(-c2cnn3c(NCC4CCOCC4)cc(NCc4cccnc4)nc23)ccc1C(=O)NC1CC1 .
Result: 100 to 500 nM

Ask: Next up: Cc1cc(-c2cnn3c(NCC4CCN(C)CC4)cc(Oc4cccc(F)c4)nc23)ccc1C(=O)NC1CC1
Result: ≤ 100 nM

Ask: Next up: Cc1cc(-c2cnn3c(NCC4CCOCC4)cc(N[C@H]4CCCC[C@H]4CO)nc23)ccc1C(=O)NC1CC1
Result: 100 to 500 nM
